# Assay overview: physchem
# Assay type: physicochemical
# Conditions used: ethyl acetate, organic solvent or mixture
Documented solubility across a set of compounds

Compound: CO/N=C(\C(=O)N[C@@H]1C(=O)N2C(C(=O)O[C@@H](C)OC(C)=O)=C(COC(N)=O)CS[C@H]12)c1ccco1 [S-cefuroxime axetil, reference compound]
Readout unit: mg/mL
solubility: 10

Compound: CO/N=C(\C(=O)N[C@@H]1C(=O)N2C(C(=O)O[C@H](C)OC(C)=O)=C(COC(N)=O)CS[C@H]12)c1ccco1
Readout unit: mg/mL
solubility: 13.4

---

# Assay overview: physchem
# Type: physicochemical
# Conditions used: n-butanol, organic solvent or mixture

Compound: CO/N=C(\C(=O)N[C@@H]1C(=O)N2C(C(=O)O[C@H](C)OC(C)=O)=C(COC(N)=O)CS[C@H]12)c1ccco1
solubility: 1000 µg/mL
//
Compound: CO/N=C(\C(=O)N[C@@H]1C(=O)N2C(C(=O)O[C@@H](C)OC(C)=O)=C(COC(N)=O)CS[C@H]12)c1ccco1 [S-cefuroxime axetil, reference compound]
solubility: 300 µg/mL
